- Assay remarks: physchem
Endpoint name: solubility

CC(C)c1onc(-c2c(Cl)cccc2Cl)c1COc1ccc(/C=C/c2cccc(C(=O)O)c2)c(Cl)c1 = 0.002 µg/mL

# context switch: different compound, same solubility
Output measured solubility for this item: "C=CC1=C(C)c2cc3[nH]c(cc4nc(cc5[nH]c(cc1n2)c(C)c5CCC(=O)O)C(CCC(=O)O)=C4C)c(C)c3C=C"
~1 µg/mL

====

- Assay remarks: Screening of protected amino acid derivatives as solubilizers and inhibitor of crystallization for JP4-039
- Assay type: physicochemical
- Condition details: molar ratio 50
- Method: In several studies, we compared a group of ε-Boc-lysine derivatives bearing various modifying groups on the α-NH2 position. […] FIG. 1 illustrates structures of various amino acid derivatives studied in solubility studies of JP4-039 in Table 3. […] In Table 3, the followings designations are used: U—Initially soluble but unstable after 5 min; V—forming vesicles; I—insoluble; and S—soluble. 1(b). […]
Endpoint name: Solubility status of JP4-039 with amino acid derivative

Here is how some molecules turned out for Solubility status of JP4-039 with amino acid derivative.
O=C(N[C@@H](Cc1ccccc1)C(=O)O)c1ccccc1 = S
CC(=O)N[C@@H](CCCCNC(=O)OCc1ccccc1)C(=O)O = S
CC(C)(C)OC(=O)NCCCC[C@H](NC(=O)OCc1ccccc1)C(=O)O = S
CC(C)(C)OC(=O)N[C@@H](CCCCNC(=O)OCc1ccccc1)C(=O)O = S

# context switch: different molecule, same Solubility status of JP4-039 with amino acid derivative
Output measured Solubility status of JP4-039 with amino acid derivative for this item: "CC(C)(C)OC(=O)NCCCC[C@H](NC(=O)OCC1c2ccccc2-c2ccccc21)C(=O)O"
S

====

- Assay remarks: Screening of protected amino acid derivatives as solubilizers and inhibitor of crystallization for JP4-039
- Assay type: physicochemical
- Condition details: molar ratio 50
Endpoint name: Solubility status of JP4-039 with amino acid derivative

CC(=O)NCCCC[C@H](NC(=O)OCc1ccccc1)C(=O)O = S
O=C(NCCCC[C@H](NC(=O)OCc1ccccc1)C(=O)O)OCc1ccccc1 = S
O=C(O)CCNC(=O)OCc1ccccc1 = I

====

- Assay remarks: Particle size measurement by laser dynamic light scattering
- Type: physicochemical
- Condition details: agent formulated with multi-chain PEGylated micelle-forming surfactant
# Size +/− SD per record follows

C=CC[C@@H]1/C=C(\C)C[C@H](C)C[C@H](OC)[C@H]2O[C@@](O)(C(=O)C(=O)N3CCCC[C@H]3C(=O)O[C@H](/C(C)=C/[C@@H]3CC[C@@H](O)[C@H](OC)C3)[C@H](C)[C@@H](O)CC1=O)[C@H](C)C[C@@H]2OC = 62.3 +/− 9 nm

Output measured Size +/− SD for this item: "O=C([O-])c1c(Cl)c(Cl)c(Cl)c(Cl)c1-c1c2cc(I)c(=O)c(I)c-2oc2c(I)c([O-])c(I)cc12.[Na+].[Na+]"
101.6 +/− 7 nm

Output measured Size +/− SD for this item: "CC(C)c1onc(-c2c(Cl)cccc2Cl)c1COc1ccc(/C=C/c2cccc(C(=O)O)c2)c(Cl)c1"
35.4 +/− 12 nm

Output measured Size +/− SD for this item: O=C(O[C@@H]1Cc2c(O)cc(O)cc2O[C@@H]1c1cc(O)c(O)c(O)c1)c1cc(O)c(O)c(O)c1 [EGCG, epigallocatechin gallate]
89.9 +/− 12 nm
